System: MILI (PIWIL2) piRISC loaded with L1MC piRNA (26 nt);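 further: 1 nM active piRISC with 0.1 nM target library at 33 °C single turnover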
Assay name: pre-steady-state target cleavage rate (min^-1); guide: L1MC piRNA 5'p-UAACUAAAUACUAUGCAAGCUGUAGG; higher = faster piRNA-guided slicing of the target
Condition context: auxiliary factor: none (no GTSF1)
Label scheme for pre-steady-state target cleavage rate: interval 1 (below 0.005), interval 2 (0.005 to below 0.007), interval 3 (0.007 or more)

Please review the entries below; each comes with its answer.
- Residues: "UCCUGGUACAGCUUGCAUAGUAUUUAGAUUA"
  Measured on: "MILI (PIWIL2) piRISC loaded with L1MC piRNA (26 nt)"
  Assigned label: "interval 3"
- Residues: "UCCUGGAUGAGCUUGGUAAGUAUUUAGUUA"
  Measured on: "MILI (PIWIL2) piRISC loaded with L1MC piRNA (26 nt)"
  Assigned label: "interval 1"
- Residues: "UCCUGGUACAGCUUGCAUAGUGAUUUAGUUA"
  Measured on: "MILI (PIWIL2) piRISC loaded with L1MC piRNA (26 nt)"
  Assigned label: "interval 3"
- Residues: "UCCUGGAACAGCCUGCAUAGUAUUUAGUUA"
  Measured on: "MILI (PIWIL2) piRISC loaded with L1MC piRNA (26 nt)"
  Assigned label: "interval 3"
- Residues: "UCCUCCUUACAGCUUGCAUAGUAUUUAGUUA"
  Measured on: "MILI (PIWIL2) piRISC loaded with L1MC piRNA (26 nt)"
  Assigned label: "interval 3"

Input: Which class is correct for the following sequence? `UCCUGGAACAGCAUGCAUAGUAUUUAGUAA`
Output: interval 1

Input: Which class does `UCCUGGAUGUUCUUGCAUAGUAUUUAGUUA` fall in?
Output: interval 3

Input: Input `UCCUGGAUGUCCUUGCAUUGUAAUUAGUUA` ; output its category
Output: interval 1

Input: Field: class (pre-steady-state target cleavage rate) — entry: `UCCUGGAACAGCUUGCUAUGUAUUUAGUUA`
Output: interval 1

Input: Lab log: `UCCUGGUACAGCUUGCAUAGUAAUUAGUUA` — assign pre-steady-state target cleavage rate category
Output: interval 2

---

Tested on: EfPiwi piRISC loaded with piRNA #1 (26 nt)
Assay name: pre-steady-state target cleavage rate (min^-1); auxiliary factor: 500 nM Ephydatia muelleri Gtsf1; guide: piRNA #1 5'p-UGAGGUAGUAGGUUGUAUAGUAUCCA; higher = faster piRNA-guided slicing of the target
Quantity measured: pre-steady-state target cleavage rate
One number for each entry.

# count of solved cases: 2
- Residues: "GGAGACCUUACUAUACAACCUACUAUCUCA"
  Assay value: 0.00831
- Residues: "GGAGUCGAUACUAUACUACCUACUACCUCA"
  Assay value: 0.00591

Report pre-steady-state target cleavage rate for every entry below.
1. GGAGAGGAUACAAUACAAGCUACUACCUCA
2. GGAGAGGAUACUAUACAUCCUACUACCUCA
3. GGAGACCAUACUCUACAACCUACUACCUCA
4. GGAGUGGAUACUAAACAACGUACUACCUCA

Output:
[0.0036, 0.0116, 0.00922, 0.00304]

Answer for every listed entry: what is its pre-steady-state target cleavage rate? The entries follow.
1. GGAGACGUUACUAUACAACCUACUACCACA
2. GGAGACGAUACUAUACAACGUACUACCUGA
3. GGAGACCUUACUAUAUAACCUACUACCUCA
4. GGAGUGGAUACUACACAACCUACUACCUCA
5. GGAGACCAUACUAUACAACCUACUUCCUCA

Output:
1: 0.00242; 2: 0.0041; 3: 0.00964; 4: 0.082; 5: 0.00455

Answer for every listed entry: what is its pre-steady-state target cleavage rate? The entries follow.
1. GGAGUGGAUACUAUACAAGCUUCUACCUCA
2. GGAGAGGAUACUAUACAACCUAUCUACCUCA

Output:
1: 0.00507; 2: 0.00568

---

Exercise: state measured pre-steady-state target cleavage rate for each of the sequences provided.
Tested on: EfPiwi piRISC loaded with piRNA #1 (26 nt)
Assay name: pre-steady-state target cleavage rate (min^-1); auxiliary factor: 500 nM Ephydatia muelleri Gtsf1; guide: piRNA #1 5'p-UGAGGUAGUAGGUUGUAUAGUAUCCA; higher = faster piRNA-guided slicing of the target
Answers are plain numbers.

- Residues: "GGAGUGGAUACUAUACAACGUACUACCUGA"
  Measured on: "EfPiwi piRISC loaded with piRNA #1 (26 nt)"
  Quantity measured: "pre-steady-state target cleavage rate"
  Assay value: 0.00457
- Residues: "GGAGACGAUACUAUUCAACCUACUACCACA"
  Measured on: "EfPiwi piRISC loaded with piRNA #1 (26 nt)"
  Quantity measured: "pre-steady-state target cleavage rate"
  Assay value: 0.00322
- Residues: "GGAGAGGAAUCUAUACAACCUACUACCUCA"
  Measured on: "EfPiwi piRISC loaded with piRNA #1 (26 nt)"
  Quantity measured: "pre-steady-state target cleavage rate"
  Assay value: 0.00943
- Residues: "GGAGAGGAAACUAUACAACCUACUACCUCA"
  Measured on: "EfPiwi piRISC loaded with piRNA #1 (26 nt)"
  Quantity measured: "pre-steady-state target cleavage rate"
  Assay value: 0.00596
- Residues: "GGAGACCUAUGAUUACAACCUACUACCUCA [g2:g17:cont:t1A]"
  Measured on: "EfPiwi piRISC loaded with piRNA #1 (26 nt)"
  Quantity measured: "pre-steady-state target cleavage rate"
  Assay value: 0.00451

Batch: pre-steady-state target cleavage rate for all items listed.
1. GGAGACCAUACUAUACGACCUACUACCUCA
2. GGAGACCAUACUAUACAACCUUCUUCCUCA
3. GGAGACGAUACUAUACAACCAACUUCCUCA
4. GGAGAGGAUGACUAUACAACCUACUACCUCA
5. GGAGAGGAUACUAUACAACCUUCUUCCUCA
6. GGAGACCUAUCUAUACAACCUACUACCUA
7. GGAGAGGAUAGUAUACAACCUACUACCUCA

Output:
[0.0094, 0.00613, 0.00381, 0.01, 0.00382, 0.00487, 0.00608]

GET /value?item= `GGAGACCACUACUAUACAACCUACUACCUCA` &field=pre-steady-state target cleavage rate returns 0.0313

---

Test system: MILI (PIWIL2) piRISC loaded with piRNA #1 (26 nt);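 further: 1 nM active piRISC with 0.1 nM target library at 33 °C single turnover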
Assay name: pre-steady-state target cleavage rate (min^-1); guide: piRNA #1 5'p-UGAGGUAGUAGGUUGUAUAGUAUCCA; higher = faster piRNA-guided slicing of the target
Condition context: auxiliary factor: 500 nM mouse GTSF1
Quantity measured: pre-steady-state target cleavage rate
Numbers only.

Below, 2 sequences whose answers are already recorded.
- Residues: "GGAGACCUAUCUAUACAUCCUACUACGUCA"
  pre-steady-state target cleavage rate: 0.0773
- Residues: "GGAGUCGAUACUAUACAAGCUACUACCUCA"
  pre-steady-state target cleavage rate: 0.142

Hey, quick one: what's pre-steady-state target cleavage rate for each of these?
1. GGAGACGAUACUAUACAAGCAACUACCUCA
2. GGAGUGGAUACUAUACAUCCUACUUCCUCA
3. GGAGUGGAUACAAUACAACCUACUACGUCA
4. GGAGACCUAUCUAUACAUCGUACUACCUCA
5. GGAGACCUAUGAAUACAACCUACUACGUCA

Output:
0.00923
0.0127
0.0406
0.014
0.00355

---

Tested on: EfPiwi piRISC loaded with piRNA #1 (26 nt)
Assay name: pre-steady-state target cleavage rate (min^-1); auxiliary factor: 500 nM Ephydatia muelleri Gtsf1; guide: piRNA #1 5'p-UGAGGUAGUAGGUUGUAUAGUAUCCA; MIWI and MILI are mouse PIWI proteins and EfPiwi is from a freshwater sponge; tags in brackets are library labels; higher = faster piRNA-guided slicing of the target
Quantity measured: pre-steady-state target cleavage rate
One number for each entry.

Worked cases, answers included:
- Residues: "GGAGACCUAACUAUCACAACCUACUACCUCA"
  pre-steady-state target cleavage rate: 0.00495
- Residues: "GGAGACGAUUCUAUACAACCUACUACCUCA"
  pre-steady-state target cleavage rate: 0.0774
- Residues: "GGAGACCAAACUAUACAACGUACUACCUCA"
  pre-steady-state target cleavage rate: 0.00528
- Residues: "GGAGACCUAACAUACAACCUACUACCUCA"
  pre-steady-state target cleavage rate: 0.0097

Lab note: each sequence below needs its pre-steady-state target cleavage rate filled in.
1. GGAGACGAUACUAUACAACAUACUACCUCA
2. GGAGACCUUUCUAUACAACCUAGUACCUCA
3. GGAGACCAUACUAUACAACUUACUACCUCA

Output:
1: 0.00522; 2: 0.00465; 3: 0.00338

Answer for every listed entry: what is its pre-steady-state target cleavage rate? The entries follow.
1. GGAGACGAUACAUUACAACCUACUACCUCA
2. GGAGACCAUACUAUCACAACCUACUACCUCA
3. GGAGACCAUACUAUUCAACCUACUACCUGA
4. GGAGAGGAUACAUAUACAACCUACUACCUCA

Output:
0.00848
0.0399
0.00313
0.0587

Required: pre-steady-state target cleavage rate, one value per sequence below.
1. GGAGUGGCUACUAUACAACCUACUACCUCA
2. GGAGACCAUACUAUACAUCCAACUACCUCA
3. GGAGACCAUACUAUACAAGCUACUACCUGA

Output:
1: 0.0198; 2: 0.00245; 3: 0.00543

Report pre-steady-state target cleavage rate for every entry below.
1. GGAGACGAUACUAUACACCCUACUACCUCA
2. GGAGAGGAUACUACACAACCUACUACCUCA

Output:
[0.011, 0.00871]

// batch mode: one pre-steady-state target cleavage rate value per listed entry
1. GGAGAGGAUACUAUAGAACCUUCUACCUCA
2. GGAGACCUAACUAUACACCCUACUACCUCA
3. GGAGACCAUACUAUACAACCUACAUGGAGA [g8:g23:cont:t1A]
4. GGAGACCUUACUAUACAACCACUACCUCA
5. GGAGUGGAUACUAUACAACCUAUUACCUCA

Output:
1. 0.003
2. 0.00682
3. 0.00382
4. 0.0103
5. 0.0922

Below are some sequences; for each one, tell me its pre-steady-state target cleavage rate.
1. GGAGACGAUACUAUACUAACCUACUACCUCA
2. GGAGUGGAUACAAUACAACCUUCUACCUCA
3. GGAGACCAUACUAUACAACCUACGUACCUCA
4. GGAGAGGAUACUAUACAACCUACAACCACA
5. GGAGACGAUACUAUACAACCUACCACCUCA
6. GGAGACCAUACUAUACAACCUAGUACCUGA
7. GGAGACCUUUCUAUACAACCUACUACCUCA
8. GGAGACCAUACUAUACAACCUACCUACCUCA

Output:
1. 0.00448
2. 0.00456
3. 0.00254
4. 0.00436
5. 0.00631
6. 0.00278
7. 0.11
8. 0.00424

For every record below, what is its pre-steady-state target cleavage rate?
1. GGAGUGGAUACUAUACAACCUAGUAGCUCA
2. GGAGUGGAUACUCAUACAACCUACUACCUCA
3. GGAGACCAUACUAUAGAACCUACUACCUCA
4. GGAGACGAUACUAUACAACCUCACUACCUCA

Output:
0.00485
0.0153
0.00367
0.0049

Here are 8 sequences. What values of pre-steady-state target cleavage rate were reported for them?
1. GGAGUGGAAAGUAUACAACCUACUACCUCA
2. GGAGACCAUACUAUACAACCUACUACCUCCA
3. GGAGAGGAUACUAUACAACCUAGUAGCUCA
4. GGAGUGGAUACUAUACAACUCUACUACCUCA
5. GGAGACGAUACUUAUCAACCUACUACCUCA
6. GGAGACGAUACUAUACAAGCUACUAGCUCA
7. GGAGUGGAUAGUAUACAUCCUACUACCUCA
8. GGAGUCGAUACAAUACAACCUACUACCUCA

Output:
1. 0.00841
2. 0.0119
3. 0.00479
4. 0.00493
5. 0.00522
6. 0.00375
7. 0.00444
8. 0.00908
